- MEASUREMENT TARGET: UniProt P32745
- Sequence (P32745 whole entry): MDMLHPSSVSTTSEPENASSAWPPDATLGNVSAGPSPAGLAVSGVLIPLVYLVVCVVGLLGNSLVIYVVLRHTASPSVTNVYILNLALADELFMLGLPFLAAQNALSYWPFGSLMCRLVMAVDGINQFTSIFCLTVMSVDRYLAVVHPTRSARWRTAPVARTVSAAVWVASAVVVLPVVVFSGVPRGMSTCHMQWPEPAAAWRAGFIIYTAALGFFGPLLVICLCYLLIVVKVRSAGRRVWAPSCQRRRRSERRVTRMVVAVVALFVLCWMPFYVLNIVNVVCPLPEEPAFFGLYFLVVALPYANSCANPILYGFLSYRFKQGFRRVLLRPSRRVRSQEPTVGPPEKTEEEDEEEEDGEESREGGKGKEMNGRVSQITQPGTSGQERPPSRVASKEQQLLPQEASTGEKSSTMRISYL
pKi: −log10 of the molar value.
PROPERTY NAME: pKi

>>> print(df.to_string())
                              line_notation  property_name  recorded_number
0  Clc1ccc(Cc2nnc(CCc3c[nH]c4ccccc34)n2CCCc2c[nH]cn2)cc1Cl            pKi             5.18

----------
Each entry below carries its reported Ki.
- MEASUREMENT TARGET: Somatostatin receptor type 4 (Homo sapiens)
- Sequence (P31391 whole entry): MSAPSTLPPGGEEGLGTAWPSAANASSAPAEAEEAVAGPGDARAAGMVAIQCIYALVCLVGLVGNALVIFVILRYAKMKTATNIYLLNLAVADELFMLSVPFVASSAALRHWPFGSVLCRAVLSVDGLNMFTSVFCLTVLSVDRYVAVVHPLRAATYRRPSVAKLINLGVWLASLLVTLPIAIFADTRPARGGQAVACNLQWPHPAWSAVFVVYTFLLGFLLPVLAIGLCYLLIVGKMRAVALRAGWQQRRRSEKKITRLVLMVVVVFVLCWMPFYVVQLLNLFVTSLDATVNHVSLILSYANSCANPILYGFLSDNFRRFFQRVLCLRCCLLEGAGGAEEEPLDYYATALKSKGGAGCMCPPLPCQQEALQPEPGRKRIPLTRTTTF
- PROTOCOL NOTES: Displacement of [125I]-Tyr-SRIF from recombinant human SST4 receptor expressed in CHOK1 cell membranes after 90 mins by gamma counting method
PROPERTY NAME: Ki

>>> df
                              line_notation  property_name   result
0  c1ccc(Cn2c(Cc3c[nH]c4ccccc34)nnc2C2CCNCC2)cc1             Ki  > 10 µM
1  NCCCc1nnc(Cc2ccc(Cl)c(Cl)c2)n1CCc1c[nH]c2ccccc12             Ki  > 10 µM
2  NCCCc1nnc(CCc2c[nH]c3ccccc23)n1Cc1ccc(Cl)c(Cl)c1             Ki  > 10 µM
3   NCCCc1nnc(Cc2c[nH]c3ccccc23)n1Cc1ccccc1             Ki  > 10 µM
4  NCCCc1nnc(CCc2c[nH]c3ccccc23)n1Cc1ccccc1             Ki  < 10 µM
5  Clc1ccc(Cc2nnc(C3CCNCC3)n2CCc2c[nH]c3ccccc23)cc1Cl             Ki  > 10 µM
